Molecular target: AKT1 E17K (Homo sapiens, UniProt P31749, E17K)
Sequence (P31749 whole entry E17K): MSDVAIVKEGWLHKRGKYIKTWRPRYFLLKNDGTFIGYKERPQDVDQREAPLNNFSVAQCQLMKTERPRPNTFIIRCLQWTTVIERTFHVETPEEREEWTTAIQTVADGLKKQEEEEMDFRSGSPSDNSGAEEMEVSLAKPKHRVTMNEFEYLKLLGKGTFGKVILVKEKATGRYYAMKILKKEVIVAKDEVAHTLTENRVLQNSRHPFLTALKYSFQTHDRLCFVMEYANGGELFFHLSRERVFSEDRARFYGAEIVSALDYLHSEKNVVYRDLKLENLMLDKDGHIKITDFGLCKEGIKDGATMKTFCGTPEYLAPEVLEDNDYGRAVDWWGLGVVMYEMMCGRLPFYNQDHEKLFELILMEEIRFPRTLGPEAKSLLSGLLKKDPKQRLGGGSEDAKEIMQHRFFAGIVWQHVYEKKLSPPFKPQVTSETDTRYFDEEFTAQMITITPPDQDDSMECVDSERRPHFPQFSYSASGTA
Assay: Live cell AKT1 E17K target engagement by NanoBRET competitive probe displacement
Conditions: HEK293 cells transfected with kinase-NanoLuciferase fusion, 2 h at 37° C.
measured_endpoint: IC50 (µM)

Here's what some known entries look like.
C=CC(=O)N1CCN(CC2CCc3cc(-n4c(-c5cccnc5N)nc5ccc(-n6cccn6)nc54)ccc32)C[C@H]1C (single isomer, unassigned) [Example 292]; 0.00685
C=CC(=O)N1CC2(CCCC(N[C@H]3CCc4cc(-n5c(-c6cccnc6N)nc6ccc(-n7cccn7)nc65)ccc43)C2)C1 (single isomer, unassigned) [Example 78]; 0.063
C=CC(=O)N1CCC(N[C@@H]2c3ccc(-n4c(-c5cccnc5N)nc5ccc(-n6ccc(F)n6)nc54)cc3CC2F)C[C@H]1C (single isomer, unassigned) [Example 275]; 0.084

P. C=CC(=O)N1CCC(N[C@@H]2c3ccc(-n4c(-c5ccccc5)nc5ccc(-n6cccn6)nc54)cc3CC2F)CC1 (single isomer, unassigned) [Example 250]
Q. CC#CC(=O)Nc1ccccc1C(=O)N[C@H]1CCc2cc(-n3c(-c4cccnc4N)nc4ccc(-n5cccn5)nc43)ccc21 [Example 9]
Decide: P or Q , by lowest recorded IC50. // respond with label for picked entry
P

1. C=CC(=O)N1CCC(N[C@@H]2c3ccc(-n4c(-c5ccccc5F)nc5ccc(-n6cccn6)nc54)cc3CC2F)C[C@H]1C (single isomer, unassigned) [Example 317]
2. C=CC(=O)N1CC2CC[C@@H]1CC2N[C@H]1CCc2cc(-n3c(-c4cccnc4N)nc4ccc(-n5cccn5)nc43)ccc21 (single isomer, unassigned) [Example 132]
Two entries are listed, 1 and 2 . Which one carries the higher IC50? // respond with label for picked entry
2
